# targetOfAssay: Factor X (FX), P00742
# Sequence (P00742 whole entry, looked up): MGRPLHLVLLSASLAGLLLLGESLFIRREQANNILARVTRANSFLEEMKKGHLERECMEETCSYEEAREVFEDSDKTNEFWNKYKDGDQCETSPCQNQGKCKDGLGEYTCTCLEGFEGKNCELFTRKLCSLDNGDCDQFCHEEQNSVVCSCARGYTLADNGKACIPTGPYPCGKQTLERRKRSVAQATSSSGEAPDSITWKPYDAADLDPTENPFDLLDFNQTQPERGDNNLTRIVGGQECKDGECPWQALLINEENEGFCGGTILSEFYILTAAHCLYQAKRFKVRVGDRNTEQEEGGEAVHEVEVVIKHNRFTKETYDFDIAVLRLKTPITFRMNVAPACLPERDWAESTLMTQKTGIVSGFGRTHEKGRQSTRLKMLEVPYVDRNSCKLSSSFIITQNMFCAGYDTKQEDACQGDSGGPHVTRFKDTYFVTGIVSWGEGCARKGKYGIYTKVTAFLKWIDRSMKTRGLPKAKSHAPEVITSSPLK
observable: kcat (s⁻¹)
Expressed in s⁻¹, but write only the number.

{"protein": "FIXa-Y155F/R338E/R403E/E410N (protein) chain 1: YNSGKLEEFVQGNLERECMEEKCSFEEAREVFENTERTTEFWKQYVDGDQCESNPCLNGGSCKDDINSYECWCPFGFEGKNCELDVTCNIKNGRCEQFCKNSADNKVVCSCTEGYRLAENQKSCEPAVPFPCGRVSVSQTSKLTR chain 2: VVGGEDAKPGQFPWQVVLNGKVDAFCGGSIVNEKWIVTAAHCVETGVKITVVAGEHNIEETEHTEQKRNVIRIIPHHNYNAAINKYNHDIALLELDEPLVLNSYVTPICIADKEYTNIFLKFGSGYVSGWGRVFHKGRSALVLQYLRVPLVDRATCLRSTKFTIYNNMFCAGFHEGGEDSCQGDSGGPHVTEVEGTSFLTGIISWGEECAMKGKYGIYTKVSEYVNWIKNKTKLT", "quantityUnit": "s⁻¹", "kcat": 5.9}

stdin: # input protein: FIXa-D104N/K106S/I251S/R318Y/R338E/R403E/E410N (protein) chain 1: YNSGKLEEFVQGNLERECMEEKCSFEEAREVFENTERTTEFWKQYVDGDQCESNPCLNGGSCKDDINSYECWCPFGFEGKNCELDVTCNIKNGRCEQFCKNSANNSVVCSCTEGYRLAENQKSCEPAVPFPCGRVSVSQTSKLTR chain 2: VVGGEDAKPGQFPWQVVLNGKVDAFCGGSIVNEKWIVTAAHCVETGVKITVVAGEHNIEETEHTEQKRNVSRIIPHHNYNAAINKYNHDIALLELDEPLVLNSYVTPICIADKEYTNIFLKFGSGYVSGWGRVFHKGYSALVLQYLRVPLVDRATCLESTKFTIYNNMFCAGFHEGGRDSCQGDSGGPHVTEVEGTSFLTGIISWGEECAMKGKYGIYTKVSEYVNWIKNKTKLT ; wanted: its kcat
stdout: 5.5

stdin: # input protein: FIXa variant D104N/K106S/I251S/R318Y/R338E/R403E/E410N (protein) chain 1: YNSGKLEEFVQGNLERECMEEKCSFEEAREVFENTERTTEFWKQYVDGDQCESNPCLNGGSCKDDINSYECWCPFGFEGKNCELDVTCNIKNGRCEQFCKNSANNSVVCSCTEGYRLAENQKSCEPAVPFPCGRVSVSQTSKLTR chain 2: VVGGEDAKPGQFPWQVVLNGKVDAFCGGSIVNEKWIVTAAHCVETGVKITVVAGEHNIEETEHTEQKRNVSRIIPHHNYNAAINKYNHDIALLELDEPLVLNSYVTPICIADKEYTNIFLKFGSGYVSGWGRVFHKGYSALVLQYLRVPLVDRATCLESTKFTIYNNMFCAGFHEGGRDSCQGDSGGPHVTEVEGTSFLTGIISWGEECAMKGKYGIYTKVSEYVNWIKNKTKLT ; wanted: its kcat
stdout: 5.5

stdin: # input protein: FIXa variant Y155F/I251S/R318Y/R338E/R403E/E410N (protein) chain 1: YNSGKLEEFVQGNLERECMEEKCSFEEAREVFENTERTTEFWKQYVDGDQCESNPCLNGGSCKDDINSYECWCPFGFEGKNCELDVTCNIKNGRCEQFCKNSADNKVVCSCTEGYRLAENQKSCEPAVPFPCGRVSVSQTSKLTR chain 2: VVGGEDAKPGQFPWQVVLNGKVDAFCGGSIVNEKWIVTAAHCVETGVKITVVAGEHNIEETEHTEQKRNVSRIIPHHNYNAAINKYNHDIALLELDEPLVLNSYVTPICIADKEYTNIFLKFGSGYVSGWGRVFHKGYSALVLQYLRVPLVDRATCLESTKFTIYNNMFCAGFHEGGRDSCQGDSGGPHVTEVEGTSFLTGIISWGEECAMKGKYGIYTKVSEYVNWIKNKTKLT ; wanted: its kcat
stdout: 7.2
